The measurements presented in this section are drawn from ChEMBL document CHEMBL3433997.

Biological target: Solute carrier family 2, facilitated glucose transporter member 1 (Homo sapiens) (UniProt P11166)
Sequence (P11166 whole entry): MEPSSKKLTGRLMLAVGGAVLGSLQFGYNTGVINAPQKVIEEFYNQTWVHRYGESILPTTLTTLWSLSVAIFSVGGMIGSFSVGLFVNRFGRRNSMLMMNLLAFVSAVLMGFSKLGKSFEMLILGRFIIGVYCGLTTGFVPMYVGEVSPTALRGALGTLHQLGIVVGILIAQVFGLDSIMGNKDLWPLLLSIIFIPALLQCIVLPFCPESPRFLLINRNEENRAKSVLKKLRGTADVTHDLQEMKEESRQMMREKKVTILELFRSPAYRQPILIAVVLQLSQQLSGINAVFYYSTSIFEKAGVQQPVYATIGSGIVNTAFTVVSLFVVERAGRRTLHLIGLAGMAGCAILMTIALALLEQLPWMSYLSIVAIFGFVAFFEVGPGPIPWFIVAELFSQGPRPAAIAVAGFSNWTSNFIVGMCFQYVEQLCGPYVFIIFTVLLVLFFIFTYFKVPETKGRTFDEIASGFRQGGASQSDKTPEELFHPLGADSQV
Assay: ST_JUDE_LEISH: Cytotoxicity at 2uM final concentration against transgenic Leishmania Mexicana promastigotes LmGLUT1 that are glucose transport deficient and complemented with the human glucose transporter GLUT1. Activity is measured by DNA content using SYBR green in vitro
Assay type: functional
Metric: inhibition (%)
Numeric only. Scale: %

FC(F)(F)c1ccc(Nc2nnnc3ccccc23)cc1	7.74

For the compound shown here, O=C(Cc1cccc(Cl)c1)Nc1cccc(-c2c[nH]c3nc(Nc4cccc(OCc5ccccc5)c4)ncc23)c1 , give the reported inhibition.
6.67

For the compound shown here, COc1cc2nc(Nc3ccc4c(ccn4Cc4ccccc4)c3)nc(Nc3ccc4c(ccn4Cc4ccccc4)c3)c2cc1OC , give the reported inhibition.
1.55

For the compound shown here, CC(Oc1ccc(C(=O)c2ccc(F)cc2)cc1)C(=O)N1CCc2ccccc21 (stereo unspecified) , give the reported inhibition.
-1.44

* * *

Molecular target: Hexose transporter 1 (Plasmodium falciparum) (UniProt O97467)
Experiment: ST_JUDE_LEISH: Cytotoxicity at 2uM final concentration against transgenic Leishmania Mexicana promastigotes LmPfHT that are glucose transport deficient and complemented with the Plasmodium falciparum hexose transporter. Activity is measured by DNA content using SYBR green in vitro
Type: functional
Metric: inhibition (%)
Numeric only. Scale: %

CNC(=O)c1cc(F)c(F)cc1Nc1nc(Nc2cccc(CS(C)(=O)=O)c2)ncc1Cl	1.35
COc1ccc2c(NN=Cc3ccccc3Cl)ccnc2c1	4.27
CC1CC(C)CN(S(=O)(=O)c2cc(C(=O)Nc3cccc([N+](=O)[O-])c3)ccc2Br)C1 (stereo not given)	7.57
N=C(NCCc1ccc(Cl)c(Cl)c1)c1ccc2ccccc2c1	-1.48
COCCCn1c(=N)c(C(=O)NCCc2ccc(OC)cc2)cc2c(=O)n3cccc(C)c3nc21	5.42

What measured inhibition is associated with CN1CCN(CCCN(Cc2cccc(-c3ccc(CNCCc4ccccc4)cc3)c2)C(=O)c2cccs2)CC1 on Hexose transporter 1 (Plasmodium falciparum) (UniProt O97467)?
4.22

What measured inhibition is associated with CC(C)OC(=O)c1ccc(NC(=O)N[C@@H](Cc2ccc(O)cc2)C(=O)NC2CC3CCC(C2)N3Cc2ccccc2)cc1 (stereo not given in full) on Hexose transporter 1 (Plasmodium falciparum) (UniProt O97467)?
4.77

What measured inhibition is associated with Cc1cc(NCCC(=O)Nc2ccccc2)nc(NCC2CCCCC2)n1 on Hexose transporter 1 (Plasmodium falciparum) (UniProt O97467)?
3.39

What measured inhibition is associated with Cc1noc(C)c1-c1cccc(CNCc2cccc(-c3ccc(-c4nc5cccc(C)c5[nH]4)cc3)c2)c1 on Hexose transporter 1 (Plasmodium falciparum) (UniProt O97467)?
1.4

What measured inhibition is associated with O=C(CCCCCNC(=O)c1ccc(O)c(-c2ccc(Cl)c(Cl)c2)c1)NCc1cccc2ccccc12 on Hexose transporter 1 (Plasmodium falciparum) (UniProt O97467)?
2.12

* * *

inhibition listing for selected compounds.
Target: Solute carrier family 2, facilitated glucose transporter member 1 (Homo sapiens) (UniProt P11166)
Test: ST_JUDE_LEISH: Cytotoxicity at 2uM final concentration against transgenic Leishmania Mexicana promastigotes LmGLUT1 that are glucose transport deficient and complemented with the human glucose transporter GLUT1. Activity is measured by DNA content using SYBR green in vitro
Assay type: functional

Answered examples (4):
COc1ccc(-c2ccc(NC(=O)c3cccc(C#N)c3)cc2)cc1CN1CCCN(C)CC1	4.08%
CCN(CC)CCON=Cc1cc(C)c2[nH]c3ccc(OCc4ccccc4)cc3c2c1C	-1.13%
Cc1cc(OCCCN2CCC(NS(=O)(=O)c3ccc(C(F)(F)F)cc3)CC2)c2ccccc2n1	1.59%
Cc1cccc2nc(-c3ccc(-c4cccc(NC(=O)C(C)CN5CCN(C)CC5)c4)s3)[nH]c12 (stereo unspecified)	11.7%

For the compound shown here, CCCCN1CC[C@@H](CCC(O)c2cc(OCCC)nc3ccc(OC)cc23)[C@@H](CC)C1 (stereo partly specified) , give the reported inhibition.
-0.6%

For the compound shown here, N=C(N)Nc1nc(-c2ccc(NC(=N)N3CCC[C@H]3CN3CCCC3)cc2)cs1 , give the reported inhibition.
-0.01%

For the compound shown here, CCOc1ccc(-c2nonc2NC(=O)c2ccccc2Cl)cc1OCC , give the reported inhibition.
5.4%

For the compound shown here, CC(C)(C)c1ccccc1OC(=O)c1ccccc1 , give the reported inhibition.
-1.66%

For the compound shown here, Oc1ccc(CCNc2nc(NCc3cccc(-c4cc(C(F)(F)F)ccc4Cl)c3)nc(N3CCNCC3)n2)cc1 , give the reported inhibition.
2.86%

For the compound shown here, Nc1ncc(Cc2ccc3c(ccc4ccccc43)c2)c(N)n1 , give the reported inhibition.
14.2%

For the compound shown here, COc1ccc(Br)cc1C1C2C(=O)N(c3ccc(Br)cc3)C(=O)C2C2(C(=O)O)CC(OCc3ccccc3)CN12 (stereo unspecified) , give the reported inhibition.
12.4%

For the compound shown here, CCCCNC(=O)[C@@H]1CCCN1C(=O)c1ccc(O)c(-c2ccc(Cl)c(Cl)c2)c1 , give the reported inhibition.
1.42%
